B1: Far upstream element-binding protein 1, residues 98 to 169; numbered along this chain, Q96AE4 (parent)
chain: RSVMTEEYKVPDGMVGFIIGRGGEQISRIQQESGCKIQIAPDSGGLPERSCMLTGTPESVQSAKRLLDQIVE

Variants of: B1
assayComment: abundance fitness (aPCA) (normalised: wild type 0, dead -1); higher = more abundant; growth selection in yeast, the domain comes from the species named
conditions: Homo sapiens
resultType: abundance fitness

RSVMTEEYKVPDGMVGFIIGRGGEQISRIQQESGCKILIAPDSGGLPERSCMLTGTPESVQSAKRLLDQIVE | -0.036
RSVMTEEYKVPDGMVGFIIGEGGEQISRIQQESGCKIQIAPDSGGLPERSCMLTGTPESVQSAKRLLDQIVE | -0.251
RSVMTEEYKVPDGMVGFIIGRGGCQISRIQQESGCKIQIAPDSGGLPERSCMLTGTPESVQSAKRLLDQIVE | -0.082
RSVMTEEYKVPDGMVGFIIGRGGEQISRIQQESGCKIQIAPDSGGLPDRSCMLTGTPESVQSAKRLLDQIVE | -0.059
RSVMTEEYKVPDGMVGFIIGRGGEQISRIQQESGCKIQIAPDSGGLPKRSCMLTGTPESVQSAKRLLDQIVE | -0.084
RSVMTEEYKPPDGMVGFIIGRGGEQISRIQQESGCKIQIAPDSGGLPERSCMLTGTPESVQSAKRLLDQIVE | -0.265
RSVMTEEYKVPDGMVGFIIGRGGEQISRIQQESGCKIQIAPDSGGLPERSCMLTGAPESVQSAKRLLDQIVE | -0.046
RSVMTEEYKVPDGMVGFIIGRGGEQISRIQQESGCKIQIAPDSGGLPERSCMLTGTPESVQSAKRLLDQSVE | -0.046
RSVMTEEYKVPDGMVTFIIGRGGEQISRIQQESGCKIQIAPDSGGLPERSCMLTGTPESVQSAKRLLDQIVE | -0.054
RSVSTEEYKVPDGMVGFIIGRGGEQISRIQQESGCKIQIAPDSGGLPERSCMLTGTPESVQSAKRLLDQIVE | -0.135
RSVMTEEYKVPDGMVGFIIGRGGEQISEIQQESGCKIQIAPDSGGLPERSCMLTGTPESVQSAKRLLDQIVE | -0.058
